// normalized growth lookup, one value per entry
experiment: chemical genetic growth profiling, strain panel (AID 1159580);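 further: tested at 20 µM; growth read once vehicle control cultures reached saturation at 30 °C; 1 = growth at the plate median or of vehicle wells; lower values mean less growth of the strain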; settings: S. cerevisiae deletion strains, growth OD, locus YBR009C, strain hhf1, active compounds read low
Among all 5,500 compounds or so, about 2,000 (36%) were called active. Another 18% or so got no clear call; they are omitted. Some of the results follow.
Respond using a number only.

Record summary for CC(N)C(=O)OC(C)(C)Cc1ccc(Cl)cc1 (stereo unspecified) : reported normalized growth = 1.06

Continuing:
Lab note: COc1ccc2c(C)cc(=O)oc2c1 gave normalized growth of 1.01

Recorded result, CC(Oc1ccccc1)C(=O)N[C@@H]1C(=O)N2[C@@H]1SC(C)(C)[C@@H]2C(=O)O (stereo partly specified) , normalized growth: 0.997

Data point: C=Cc1c2[nH]c(c1C)C=c1[nH]c(c(C)c1C=C)=CC1N=C(C=c3[nH]c(c(C)c3CCC(=O)O)=C2)C(CCC(=O)O)=C1C (stereo unspecified) ; normalized growth = 1.02

The molecule identified as CCOC(=O)[C@H](CCc1ccccc1)N[C@H]1CCc2ccccc2N(CC(=O)O)C1=O registered its normalized growth at 0.973

Reported normalized growth for COP(=O)(OC)OC=C(Cl)Cl was 0.991

// field: normalized growth; key: CO[C@H]1[C@H](O)[C@H](O[C@H]2CC[C@]3(C)C4CC[C@]5(C)C(C6=CC(=O)OC6)CC[C@]5(O)C4CC[C@@H]3C2)O[C@@H](C)[C@@H]1O (stereo partly specified) ; value = 1.01

molecule CCC(=O)O[C@H]1CCC2C3CCC4=CC(=O)CC[C@]4(C)C3CC[C@@]21C (stereo partly specified) , normalized growth observed: 0.883

Recorded result, COc1ccc2c(c1)OCc1c-2oc2cc(OC)ccc12 , normalized growth: 0.737

normalized growth in this record for CC(=O)OCC(=O)[C@H]1CCC2C3CCC4=CC(=O)CC[C@]4(C)C3CC[C@@]21C (stereo partly specified) : 0.986

In plain terms, CC(=O)OCC(=O)[C@@]1(O)CCC2C3CCC4=CC(=O)CC[C@]4(C)C3C(=O)C[C@@]21C (stereo partly specified) has a documented normalized growth of 0.998

# normalized growth of CC(C)c1c(C(=O)c2ccccc2)c(-c2ccccc2)c(-c2ccc(F)cc2)n1CC[C@@H](O)C[C@@H](O)CC(=O)O = 0.924

# molecule CC(=O)O[C@H]1[C@@H]2[C@@H](OC(=O)Cc3ccccc3)[C@@H](C)C[C@]2(OC(C)=O)C(=O)/C(C)=C/[C@H]2[C@H](CC[C@@]13CO3)C2(C)C ; its normalized growth = 1

normalized growth in this record for CC(=O)NC1SCCC1=O (stereo unspecified) : 0.971

Lab book: normalized growth of CCOC(=O)C(C)(C)Oc1ccc(Cl)cc1 noted as 0.982

* * *

experiment: chemical genetic growth profiling, strain panel (AID 1159580);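 further: tested at 20 µM; growth read once vehicle control cultures reached saturation at 30 °C; 1 = growth at the plate median or of vehicle wells; lower values mean less growth of the strain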; details: S. cerevisiae deletion strains, growth OD, locus YLR027C, strain aat2, active compounds read low
The whole screen tested about 5,500 compounds, of which about 2,000 (36%) were called active. Another 18% or so got no clear call; they are omitted. The list shows a part of the results.
propertyMeasured: normalized growth
Answer with a bare number; do not write a unit.

Example cases with answers are listed next.
Item: CN1CCCN=C1COC(=O)C(O)(c1ccccc1)C1CCCCC1 (centres undefined) | normalized growth: 0.993

// recorded normalized growth for NCCSSCCN : 0.99

// field: normalized growth; key: CC(C(=O)O)c1ccc(-c2ccccc2)c(F)c1 (centres undefined) ; value = 0.976

Continuing:
Item: COc1ccc(OC)c(C(O)C(C)N)c1 (centres undefined) | normalized growth: 0.987

Reported normalized growth ( CC(=O)NC1SCCC1=O (centres undefined) ) = 1
